Field: pIC50. System: Retinoic acid receptor alpha (Homo sapiens, UniProt P10276). Provenance: assorted publications.
pIC50: −log10 of the molar value.
measured_parameter: pIC50

Answered examples (4):
compound	quantitative_result
CC(/C=C/C1=C(c2ccc3c(c2)C(C)(C)CCC3(C)C)CCC1)=C\C(=O)O	5.46
CCCCCCCCc1cc2c(cc1/C(C)=C/c1ccc(C(=O)O)cc1)C(C)(C)CCCS2(=O)=O	6.70
CCCCCCCOc1cc2c(cc1/C(C)=C/c1ccc(C(=O)O)cc1)C(C)(C)CCCS2(=O)=O	6.72
CCCCCCCCOc1cc2c(cc1/C(C)=C/c1ccc(C(=O)O)cc1)C(C)(C)CCCS2(=O)=O	6.41

A: CCCCCCCOc1cc2c(cc1/C(C)=C/c1ccc(C(=O)O)cc1)C(C)CCCS2(=O)=O (stereo not shown)
B: CCCCCCc1cc2c(cc1/C=C/C=C/C(C)=C/C(=O)O)C(C)(C)CCC2(C)C
Prompt line: Returns: the label, A or B , whose recorded pIC50 is the lower number. Label of pick, please.
Response line: B
(B: 5.82, A: 6.28)
